Source of measurements: patent US10351530B2

System: NQO1 specific enzyme activity in BEAS-2B cells
method.notes: BEAS-2B NQO1 MTT Assay
Format: cell-based
condition.parameters: Homo sapiens, BEAS-2B, 48 h, NQO1 specific activity induction
pEC50: −log10 of the molar value.
quantity: pEC50

Below, 3 compounds whose answers are already recorded.
Cn1cc([C@@H]2C[C@H]2c2c(C(=O)O)cnn2-c2cccc(N3CCC[C@@H](OCC4CCCCC4)C3)c2)nn1 : 6.00 to 7.00
CC1CCc2cnn([C@@H]3CCC[C@H](c4cccc(-n5ncc(C(=O)O)c5C5CC5)c4)C3)c21 (mixture of isomers) : 5.00 to 6.00
Cn1cc([C@@H]2C[C@H]2c2c(C(=O)O)cnn2-c2cccc(C3CCCN(C(=O)OC(C)(C)C)C3)c2)nn1 (stereo partly drawn) : 5.00 to 6.00

input: Name the reported pEC50 value associated with the compound CCCCC1CCCN1C(=O)C1CCCC(c2cccc(-n3ncc(C(=O)O)c3C3CC3c3cn(C)nn3)c2)C1 (stereo not drawn)
output: 5.00 to 6.00

input: Same again, this time with O=C(O)c1cnn(-c2cccc([C@@H]3CCC[C@H](C(=O)N4CCCC5(CCCC5)C4)C3)c2)c1C1CC1 (racemic)
output: 5.00 to 6.00

input: Same again, this time with Cn1cc([C@@H]2C[C@H]2c2c(C(=O)O)cnn2-c2cccc(N3CCC[C@@H](CCC4CCCCC4)C3)c2)nn1 [Example 36d]
output: 8.00 to 9.00
